protein stability index listing for selected variants.
B1: LYSMD4 (parent)
chain: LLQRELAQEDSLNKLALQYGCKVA

- Variants of: B1
- experiment_notes: protein stability index of a GFP-peptide fusion (GPS, HEK-293T) (PSI 1-6); higher = more stable;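 further: lentivirally expressed fusions sorted by FACS into six bins by GFP to DsRed ratio, PSI derived from sequencing read proportions per bin multiplied by bin number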
- experimental_parameters: c terminus: a fixed tail appended
Response field accepts a number only; no unit should be typed.

Please review the following examples before continuing.
* K22G | 2.93
* Q18S | 1.74
* V23E | 3.4

// switching to the query variant
Request: Give its protein stability index value. Item: A7Y
Result: 2.12
